B1: Pistol ribozyme (parent)
chain: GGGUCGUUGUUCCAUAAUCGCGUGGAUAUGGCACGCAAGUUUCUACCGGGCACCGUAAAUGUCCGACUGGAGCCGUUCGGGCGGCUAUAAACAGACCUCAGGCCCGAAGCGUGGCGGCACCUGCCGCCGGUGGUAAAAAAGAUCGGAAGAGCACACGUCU

Variants of: B1
Method notes: aptazyme ON/OFF ratio, guanine; higher = stronger switching; co-transcriptional cleavage with and without guanine
Readout type: aptazyme ON/OFF ratio

Ask: Annotate the variant U7A U10A U11G C12G C13A with its measured aptazyme ON/OFF ratio.
Reply: 1.06

Ask: Annotate the variant U7C U8G G9U U10G U11G C12G C13U with its measured aptazyme ON/OFF ratio.
Reply: 1.25

Ask: Annotate the variant U7C U11A C12A with its measured aptazyme ON/OFF ratio.
Reply: 1.51

Ask: Annotate the variant U7C U8C G9A C12G C13U with its measured aptazyme ON/OFF ratio.
Reply: 1.24

Ask: Annotate the variant U8G G9C U10C U11C C12A C13G with its measured aptazyme ON/OFF ratio.
Reply: 1.06

Ask: Annotate the variant U7A U8A G9U U10C U11A C12G with its measured aptazyme ON/OFF ratio.
Reply: 1.18

Ask: Annotate the variant U7G U8A G9U U10C C12U C13A with its measured aptazyme ON/OFF ratio.
Reply: 1.12

Ask: Annotate the variant U7G U8C G9C U10G U11A C12U with its measured aptazyme ON/OFF ratio.
Reply: 1.04

Ask: Annotate the variant U7C U8A G9C U10G C13U with its measured aptazyme ON/OFF ratio.
Reply: 1.35

Ask: Annotate the variant U7C U8C U10A U11A with its measured aptazyme ON/OFF ratio.
Reply: 1.63

Ask: Annotate the variant U7A U8C G9A U11G C12U C13G with its measured aptazyme ON/OFF ratio.
Reply: 1.22

Ask: Annotate the variant U7C U8A G9U U11C C12U C13G with its measured aptazyme ON/OFF ratio.
Reply: 1

Ask: Annotate the variant U8A G9U U10G C12A C13U with its measured aptazyme ON/OFF ratio.
Reply: 1.5

Ask: Annotate the variant U7A U10A U11G C12U C13A with its measured aptazyme ON/OFF ratio.
Reply: 1.11

Ask: Annotate the variant U7C U8G G9A U11C C12U C13G with its measured aptazyme ON/OFF ratio.
Reply: 1.15

Ask: Annotate the variant U7A U8A G9A U10C U11C C12G C13G with its measured aptazyme ON/OFF ratio.
Reply: 1.07

Ask: Annotate the variant U7C G9U U10C U11G with its measured aptazyme ON/OFF ratio.
Reply: 1.18

Ask: Annotate the variant U7C U8C G9A U10G U11G C12U C13U with its measured aptazyme ON/OFF ratio.
Reply: 1.14

Ask: Annotate the variant U7A U8G G9A U10C C12A C13G with its measured aptazyme ON/OFF ratio.
Reply: 1.14

Ask: Annotate the variant U7A G9A U10G U11C C12A with its measured aptazyme ON/OFF ratio.
Reply: 1.21

Ask: Annotate the variant U7A G9A U10A U11C C12A C13U with its measured aptazyme ON/OFF ratio.
Reply: 1.1

Ask: Annotate the variant U7C U8C U11C C12U C13A with its measured aptazyme ON/OFF ratio.
Reply: 1.37

Ask: Annotate the variant U8G U10A U11C C12G C13U with its measured aptazyme ON/OFF ratio.
Reply: 1.33

Ask: Annotate the variant U7C U8C G9C U11G C12G C13G with its measured aptazyme ON/OFF ratio.
Reply: 1.11

Ask: Annotate the variant G9A U10A U11G C12U with its measured aptazyme ON/OFF ratio.
Reply: 1.42

Ask: Annotate the variant U8G G9A U11C C12G C13A with its measured aptazyme ON/OFF ratio.
Reply: 1.17

Ask: Annotate the variant U8A U11A C12G C13U with its measured aptazyme ON/OFF ratio.
Reply: 1.17

Ask: Annotate the variant U8A C12U C13G with its measured aptazyme ON/OFF ratio.
Reply: 1.35

Ask: Annotate the variant U8A G9A U10G C12U C13U with its measured aptazyme ON/OFF ratio.
Reply: 1.41

Ask: Annotate the variant U7A U8A G9A U10A U11C C13G with its measured aptazyme ON/OFF ratio.
Reply: 1.06

Ask: Annotate the variant U7C G9U U10C U11C C13G with its measured aptazyme ON/OFF ratio.
Reply: 1.06

Ask: Annotate the variant U7G U10C C12A C13U with its measured aptazyme ON/OFF ratio.
Reply: 1.12

Ask: Annotate the variant U8C G9U U10A U11C C12A C13U with its measured aptazyme ON/OFF ratio.
Reply: 1.24

Ask: Annotate the variant U7C U8A U11C C12U C13G with its measured aptazyme ON/OFF ratio.
Reply: 1.27

Ask: Annotate the variant U7G U8G G9U C12U C13U with its measured aptazyme ON/OFF ratio.
Reply: 1.26

Ask: Annotate the variant U8C U10C U11C C12A C13G with its measured aptazyme ON/OFF ratio.
Reply: 1.33

Ask: Annotate the variant U7A U8C U10A U11G C13U with its measured aptazyme ON/OFF ratio.
Reply: 1.31

Ask: Annotate the variant U7C U8G G9A U10G U11C C12U C13G with its measured aptazyme ON/OFF ratio.
Reply: 1.25

Ask: Annotate the variant U7A G9C C12U C13A with its measured aptazyme ON/OFF ratio.
Reply: 1.05

Ask: Annotate the variant U8A G9C U10C U11G C12U C13A with its measured aptazyme ON/OFF ratio.
Reply: 1.07

Ask: Annotate the variant U7A U8C U10G U11A C12A C13A with its measured aptazyme ON/OFF ratio.
Reply: 1.28

Ask: Annotate the variant U7C U8C G9A C13A with its measured aptazyme ON/OFF ratio.
Reply: 1.24

Ask: Annotate the variant U7G U10G U11G C12G C13U with its measured aptazyme ON/OFF ratio.
Reply: 1.29

Ask: Annotate the variant U7C U8G G9C U10A U11G C12G with its measured aptazyme ON/OFF ratio.
Reply: 1.26

Ask: Annotate the variant U7A G9U C12A C13G with its measured aptazyme ON/OFF ratio.
Reply: 1.21

Ask: Annotate the variant U8A G9C U10C U11G C12G C13A with its measured aptazyme ON/OFF ratio.
Reply: 1.14
